Test system: SK-OV-3
Assay: NCI tumour cell line growth inhibition, 48 h
The source made the active and inactive calls. Rule as the data show it: active = GI50 up to about 1.1 µM and inactive = higher.
Thanks in advance; please answer with one of these: y for active, n for inactive

Solved cases below.
{"compound": "CCOC(=O)Cc1cc(=O)[nH]c(-n2[nH]c(C)c(CCO)c2=O)n1", "class.assignment": "n"}
{"compound": "COc1cc(/C=N\\c2nc(-c3ccc(NS(=O)(=O)c4ccc(Cl)c(OC)c4)cc3)cs2)ccc1O", "class.assignment": "n"}
{"compound": "CCCCCCCCCCCCCCCC(=O)OCC1OC(n2cc(F)c(=O)[nH]c2=O)C(NC(=O)N(CCCl)N=O)C(O)C1O (configuration not stated)", "class.assignment": "n"}
{"compound": "CC1(C)CCC(C)(C)c2c1ccc(O)c2Cc1c(O)ccc2c1C(C)(C)CCC2(C)C", "class.assignment": "n"}

Assay outcome for Cn1c(=O)c2nc(N3CCOCC3)cnc2n(C)c1=O : what was it?
n

What call does the record list for C=C1c2ccccc2C(=O)c2c1c1c(C(=O)OC)c(O)ccc1n2Cc1ccccc1 ?
y

----------
Test system: OVCAR-4
Assay: NCI tumour cell line growth inhibition, 48 h
Activity calls are given as the source filed them. Rule as the data show it: active = GI50 up to about 1.1 µM and inactive = higher.
Known GI50 of a selection of molecules

Completed entries (count: 8):
{"molecule": "CC1=C(C(N)=O)C(c2ccncc2)C(C#N)=C2SCC(=O)N12 (configuration not stated)", "GI50": "> 100 µM (inactive)"}
{"molecule": "CC(=O)Nc1ccc(NCC(=O)Nn2cnc3ccc(S(=O)(=O)Nc4ccc(NC(C)=O)cc4)cc3c2=O)cc1", "GI50": "> 100 µM (inactive)"}
{"molecule": "CC(C)(C)OC(=O)N1CCC(C(=O)O)CC1", "GI50": "> 100 µM (inactive)"}
{"molecule": "COc1cc2nc(-c3cccs3)nc(Nc3cccc(Cl)c3)c2cc1OC", "GI50": "28.8 µM (inactive)"}
{"molecule": "CCCCC(C(=O)CCC(=O)Nc1ccc(Cl)c(Cl)c1)C(=O)C(C)C (configuration not stated)", "GI50": "> 100 µM (inactive)"}
{"molecule": "Fc1ccc(C(=C2CCN(CCc3ccc4[nH]c(=S)[nH]c4c3)CC2)c2ccc(F)cc2)cc1", "GI50": "5 µM (inactive)"}
{"molecule": "CC1(C)CC2=NC(SSC3=C(C#N)C(c4ccc(Br)cc4)C4=C(O)CC(C)(C)CC4=N3)=C(C#N)C(c3ccc(Br)cc3)C2=C(O)C1 (configuration not stated)", "GI50": "> 100 µM (inactive)"}
{"molecule": "Cc1cc(=O)nc(Sc2ccc([N+](=O)[O-])cc2[N+](=O)[O-])[nH]1", "GI50": "> 39.4 µM (inactive)"}

GI50 in this record for Cc1c(/C=N/NC(=O)c2ccccc2)c(=O)n(-c2ccccc2)n1C : > 100 µM (inactive)

For reference, reported GI50 for Cc1nc(-c2cccnc2)sc1C(=O)CC(=O)C(=O)Nc1cccc(NC(=O)C(=O)CC(=O)c2sc(-c3cccnc3)nc2C)n1 stands at > 100 µM (inactive)

GI50 for OC1(c2ccc3ccccc3c2)c2c(c3ccccc3c3ccccc23)C2=NCCN21 (configuration not stated) is 3.55 µM (inactive)

Record summary for Nc1c(O)c(C(=O)O)cc2ccccc12 : reported GI50 = 22.9 µM (inactive)
